- Test system: RD cells
- procedure_text: Detection of cytotoxicity in RD cells (CellTiter-Glo)
- Format: cell-based
- condition_context: 4 days, CellTiter-Glo, median toxic dose
measurement_type: TD50

item_smiles	assay_system	measurement_type	experimental_value
N#C/C=C/c1ccc2ncc3oc(=O)n(-c4cccc(C(F)(F)F)c4)c3c2c1	RD cells	TD50	>200 µM
O=c1oc2cnc3ccc(-c4cccs4)cc3c2n1-c1cccc(C(F)(F)F)c1	RD cells	TD50	>200 µM
CCOc1ccc(-c2ccc3ncc4oc(=O)n(-c5cccc(C(F)(F)F)c5)c4c3c2)cc1	RD cells	TD50	>200 µM
O=c1oc2cnc3ccc(-c4ccoc4)cc3c2n1-c1cccc(C(F)(F)F)c1	RD cells	TD50	>200 µM
